tested on: VDR:RXRa (NR concentration 270 nM, RXRa partner concentration 90 nM); assay: PBM binding z-score (relative to random genomic background probes); higher = stronger binding; sequences stand for … in GC…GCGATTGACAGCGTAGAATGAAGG
readout.type: PBM binding z-score
One number for each entry.

Here's what some known entries look like.
>  <sequence.content>
GCTTGGAGGACAAGGTCAGAGCTTTGTCCGTAGA

>  <target.entity>
VDR:RXRa (NR concentration 270 nM, RXRa partner concentration 90 nM)

>  <PBM binding z-score>
1.41

$$$$
>  <sequence.content>
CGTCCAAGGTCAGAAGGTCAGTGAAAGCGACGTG

>  <target.entity>
VDR:RXRa (NR concentration 270 nM, RXRa partner concentration 90 nM)

>  <PBM binding z-score>
4.14

$$$$
>  <sequence.content>
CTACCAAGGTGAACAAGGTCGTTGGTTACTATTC

>  <target.entity>
VDR:RXRa (NR concentration 270 nM, RXRa partner concentration 90 nM)

>  <PBM binding z-score>
5.92

$$$$
>  <sequence.content>
TGTCAAAGTTCAAAGGTAACTTAAGTATCCACAC

>  <target.entity>
VDR:RXRa (NR concentration 270 nM, RXRa partner concentration 90 nM)

>  <PBM binding z-score>
5.09

$$$$
>  <sequence.content>
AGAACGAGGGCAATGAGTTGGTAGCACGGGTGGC

>  <target.entity>
VDR:RXRa (NR concentration 270 nM, RXRa partner concentration 90 nM)

>  <PBM binding z-score>
4.09

$$$$

Quick one: give me PBM binding z-score for each item below, same order please.
1. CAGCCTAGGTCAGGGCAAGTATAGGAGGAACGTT
2. AGTCAAAGTTCATATAGGTAACGTAAGATATGCT
3. CCAGACTGGTGAAAGGTAACTCAGTCTGGTACGC
4. ACAGACAGGTGACTGAAGGTAACTCAGCTGGACG
5. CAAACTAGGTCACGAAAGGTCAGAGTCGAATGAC

Out:
[0.782, 4.4, -0.0185, -0.404, 6.2]

Provide the reported PBM binding z-score of each entry below, same order.
1. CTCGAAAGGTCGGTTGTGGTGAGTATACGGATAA
2. CCTATTAGTTGACCAAAAGGGCAACCGAAGCTCG

Out:
1.05
0.901

###

Please provide measured PBM binding z-score for the entries that follow.
test system: RARb homodimer (NR concentration 270 nM); experiment: PBM binding z-score (relative to random genomic background probes); higher = stronger binding; sequences stand for … in GC…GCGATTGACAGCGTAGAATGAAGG
Give bare numbers.

>  <sequence.content>
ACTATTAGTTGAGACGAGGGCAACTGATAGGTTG

>  <PBM binding z-score>
1.19

$$$$
>  <sequence.content>
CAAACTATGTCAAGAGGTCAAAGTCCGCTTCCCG

>  <PBM binding z-score>
4.59

$$$$
>  <sequence.content>
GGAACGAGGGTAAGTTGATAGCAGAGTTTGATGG

>  <PBM binding z-score>
0.494

$$$$
>  <sequence.content>
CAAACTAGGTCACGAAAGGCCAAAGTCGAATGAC

>  <PBM binding z-score>
4.29

$$$$
>  <sequence.content>
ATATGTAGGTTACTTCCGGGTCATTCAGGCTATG

>  <PBM binding z-score>
3.02

$$$$

// each listed sequence needs a value for PBM binding z-score
1. GCTTGTAGATCAAGCTTAAGAAAGACTAAGCTAA
2. TCTTGTAGATAAAAGGTTAAGAAAGCCGAAGCCT
3. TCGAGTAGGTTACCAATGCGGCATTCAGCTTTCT
4. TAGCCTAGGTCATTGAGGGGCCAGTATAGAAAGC
5. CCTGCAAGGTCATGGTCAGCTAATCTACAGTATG
6. AGAACGAGGGCAATGAGTTGATAGCTCGGGTGGC

Out:
1: -1.31; 2: 1.42; 3: -0.23; 4: 2.97; 5: 4.17; 6: 0.713

###

test system: PPARg:RXRa 30nM:10nM, anti-RXR (NR concentration 30 nM, RXRa partner concentration 10 nM); test: PBM binding z-score (relative to random genomic background probes); higher = stronger binding; sequences stand for … in GC…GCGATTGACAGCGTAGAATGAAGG
Please respond with reported PBM binding z-score for every item in the list.
One number for each entry.

>  <sequence.content>
ACTAGCAGGCCAAGGGACACTCAAGATTAGTCCG

>  <PBM binding z-score>
0.906

$$$$
>  <sequence.content>
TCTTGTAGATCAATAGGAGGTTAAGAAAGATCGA

>  <PBM binding z-score>
2.93

$$$$
>  <sequence.content>
TCTCGGAAGACACGAAGGTCAGAGCTTTCCAGAG

>  <PBM binding z-score>
2.55

$$$$
>  <sequence.content>
AAAGACAGGTGAGTGAAGGTAACTCAGCTGGACG

>  <PBM binding z-score>
-0.273

$$$$
>  <sequence.content>
CGTCACAGTTCAAGGTAACGTAACAGAAAGCAGC

>  <PBM binding z-score>
0.243

$$$$

Attention now shifts to the item below.
In: # get_value(readout='PBM binding z-score', item= `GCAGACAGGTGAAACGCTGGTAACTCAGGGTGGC` )
Out: -0.77

###

test system: PPARg DBDmut IVT, anti-PPARg (DBD mutation: PPARg1 K132A/R137A, NR concentration 270 nM); test: PBM binding z-score (relative to random genomic background probes); higher = stronger binding; sequences stand for … in GC…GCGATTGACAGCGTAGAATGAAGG
readout.type: PBM binding z-score
Numbers only.

>  <sequence.content>
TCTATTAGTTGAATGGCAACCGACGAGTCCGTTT

>  <readout.type>
PBM binding z-score

>  <observed.value>
0.888

$$$$

Hey, quick one: what's PBM binding z-score for each of these?
1. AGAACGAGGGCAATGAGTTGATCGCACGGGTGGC
2. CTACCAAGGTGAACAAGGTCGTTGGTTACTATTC

Out:
0.015
-0.188

###

test system: LXRb homodimer (NR concentration 270 nM); assay: PBM binding z-score (relative to random genomic background probes); higher = stronger binding; sequences stand for … in GC…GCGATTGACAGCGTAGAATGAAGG
Field: PBM binding z-score. Provide a value for each of the sequences that follow.

Solved cases (6 shown):
>  <sequence.content>
CCTACTGGGCCAAAAGGGTCATTGATGCCGATAA

>  <observed.value>
-0.642

$$$$
>  <sequence.content>
ATCTCTAGGTGACCAAGTTCAGTGAATGCCGAAC

>  <observed.value>
0.278

$$$$
>  <sequence.content>
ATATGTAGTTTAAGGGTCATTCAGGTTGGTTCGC

>  <observed.value>
1.53

$$$$
>  <sequence.content>
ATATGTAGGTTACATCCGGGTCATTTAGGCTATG

>  <observed.value>
0.865

$$$$
>  <sequence.content>
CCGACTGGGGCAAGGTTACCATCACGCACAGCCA

>  <observed.value>
-1.14

$$$$
>  <sequence.content>
ACAGACAGGTGATGACGGTAACTCAGGCTATCAT

>  <observed.value>
-0.424

$$$$

Look up PBM binding z-score for the entries below, preserving their order.
1. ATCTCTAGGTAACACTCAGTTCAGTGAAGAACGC
2. CCGAGTAGGTTATGGGACATTCAGGCAACGGTGA
3. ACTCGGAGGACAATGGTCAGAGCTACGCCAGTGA
4. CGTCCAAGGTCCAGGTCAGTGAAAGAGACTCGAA
5. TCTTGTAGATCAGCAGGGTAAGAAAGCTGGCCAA
6. TGAGTGAGGTTATAAGATCAGGGAACGTTGCAAA
7. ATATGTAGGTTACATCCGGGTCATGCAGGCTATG
8. AGAATGAGGTTAAGATCAGGAAAACAGAATACAT

Out:
[1.26, 0.141, -0.881, -0.914, -0.559, 0.134, 0.427, -0.122]

Dear reader, for each entry below, please note its PBM binding z-score.
1. TCTTGTAGATCAAGCAGGTTACGAAAGCCTGAGT
2. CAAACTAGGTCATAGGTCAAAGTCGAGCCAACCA

Out:
1. -0.527
2. 1.14

Would you mind listing PBM binding z-score for each of the following sequences?
1. ATTTGTAGGTTAAGGGTCATTCAGGTTGGTTCGC
2. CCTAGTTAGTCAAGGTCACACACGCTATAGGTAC

Out:
2.76
1.49

###

system: PPARg DBDmut IVT, anti-PPARg (DBD mutation: PPARg1 K132A/R137A, NR concentration 270 nM); assay: PBM binding z-score (relative to random genomic background probes); higher = stronger binding; sequences stand for … in GC…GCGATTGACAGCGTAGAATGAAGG
readout.type: PBM binding z-score

# count of solved cases: 5
>  <sequence.content>
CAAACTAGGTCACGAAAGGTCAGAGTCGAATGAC

>  <target.entity>
PPARg DBDmut IVT, anti-PPARg (DBD mutation: PPARg1 K132A/R137A, NR concentration 270 nM)

>  <PBM binding z-score>
1.91

$$$$
>  <sequence.content>
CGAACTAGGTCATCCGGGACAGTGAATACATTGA

>  <target.entity>
PPARg DBDmut IVT, anti-PPARg (DBD mutation: PPARg1 K132A/R137A, NR concentration 270 nM)

>  <PBM binding z-score>
1.68

$$$$
>  <sequence.content>
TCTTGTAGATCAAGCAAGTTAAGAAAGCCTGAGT

>  <target.entity>
PPARg DBDmut IVT, anti-PPARg (DBD mutation: PPARg1 K132A/R137A, NR concentration 270 nM)

>  <PBM binding z-score>
-0.0624

$$$$
>  <sequence.content>
GCATATAGGTAATACAAGGTGAAAGTACGATTGT

>  <target.entity>
PPARg DBDmut IVT, anti-PPARg (DBD mutation: PPARg1 K132A/R137A, NR concentration 270 nM)

>  <PBM binding z-score>
0.563

$$$$
>  <sequence.content>
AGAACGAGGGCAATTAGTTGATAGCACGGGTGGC

>  <target.entity>
PPARg DBDmut IVT, anti-PPARg (DBD mutation: PPARg1 K132A/R137A, NR concentration 270 nM)

>  <PBM binding z-score>
-0.255

$$$$

Here are 4 sequences. What values of PBM binding z-score were reported for them?
1. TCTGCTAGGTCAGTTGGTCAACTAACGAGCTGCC
2. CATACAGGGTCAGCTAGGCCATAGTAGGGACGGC
3. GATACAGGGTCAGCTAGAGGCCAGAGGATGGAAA
4. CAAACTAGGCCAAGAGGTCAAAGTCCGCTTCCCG

Out:
0.786
0.466
-0.276
0.62

Items follow; give PBM binding z-score for each.
1. CGGCAAAGTTCAAGGTAACGTAACAGAAAGCAGC
2. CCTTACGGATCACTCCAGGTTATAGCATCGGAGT
3. AGTCAAAGTTCAGCTAGGTAACGTAAGATATGCT
4. CTCGAAAGGTCGGTTGAGCTGAGTATACGGATAA
5. TGGCAAAGTTCAAAGGTAACGTAAGTATCCACAC
6. ACAATTAGTTGACTTAGGGCAACCGATACGACGC

Out:
-0.284
0.787
0.836
-0.532
1.12
1.45

Quick batch: PBM binding z-score for everything below.
1. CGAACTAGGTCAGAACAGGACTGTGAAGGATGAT
2. TCAGAGAGGTGAAGGTAACTCAGGTACGCAGTCG
3. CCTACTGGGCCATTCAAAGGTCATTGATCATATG
4. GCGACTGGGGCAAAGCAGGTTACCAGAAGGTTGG
5. CGTCCAAGGTCAGCAGGTCAGTCAAAGCGACGTG
6. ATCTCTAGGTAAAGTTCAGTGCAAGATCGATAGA
7. CTACCAAGGCGAACAAGGTCGTTGATTACTATTC
8. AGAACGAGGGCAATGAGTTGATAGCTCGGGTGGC

Out:
1: 0.194; 2: -0.235; 3: -0.542; 4: -0.78; 5: -0.246; 6: 1.22; 7: 0.0113; 8: -0.763

Please go through the list and note PBM binding z-score for each sequence.
1. ACTTACCGGTCAACGAGGTTATAGCACGCGTATA
2. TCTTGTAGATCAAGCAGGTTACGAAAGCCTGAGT
3. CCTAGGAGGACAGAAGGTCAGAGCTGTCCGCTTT

Out:
1. 1.45
2. 0.435
3. -0.918
